Source listed as the supplement of paper PMC11451515.

Collected cell viability values appear next to each entry.
test system: NOMO1; assay: cell viability relative to DMSO control; higher = less cytotoxic; settings: RPMI 5 mM glucose + 10% dialyzed FBS; 48 h; 0.19 µM
# number only, unit % dropped from output

Reference set, count: 4
>  <molecule_smiles>
CN(C)c1nc(Cc2ccc(NC(=O)c3ccc4ccccc4c3)cc2)nc(Cl)c1CC(=O)O

>  <cell viability / %>
99.4

$$$$
>  <molecule_smiles>
CN(C)CC[C@H](c1ccc(Cl)cc1)c1ccccn1

>  <cell viability / %>
86.5

$$$$
>  <molecule_smiles>
Cc1csc(NC(=O)c2sc3nc4c(c(C(F)(F)F)c3c2N)CCC4)n1

>  <cell viability / %>
89.4

$$$$
>  <molecule_smiles>
CNCc1ccc(-c2[nH]c3cc(F)cc4c3c2CCNC4=O)cc1

>  <cell viability / %>
139

$$$$

Exercise: Consider the compound `Cc1cc(C(=O)N2CCN(c3cccc(Cl)c3)CC2)n(-c2ccccc2)n1` . State its measured cell viability.
Key: 109

---

system: P12-Ichikawa; assay: cell viability relative to DMSO control; higher = less cytotoxic; details: HPLM + 10% dialyzed FBS; 48 h; 0.0632 µM
Collected cell viability values appear next to each entry.
# number only, unit % dropped from output

Reference set, count: 3
>  <molecule_smiles>
O=C(Nc1ncc(SCCN2CCCC2)s1)[C@]1(c2ccc([S+](=O)([O-])C3CC3)cc2)C[C@H]1C1CCCCC1

>  <cell viability / %>
116

$$$$
>  <molecule_smiles>
ClC1=CC\2=C(NC(=O)\C(=C2N[C@@H]3CN4CCC3CC4)C5=NC6=C([NH]5)C=CC=C6)C=C1

>  <cell viability / %>
112

$$$$
>  <molecule_smiles>
CCCCCCOC(=O)/N=C(/N)c1ccc(NCc2nc3cc(C(=O)N(CCC(=O)OCC)c4ccccn4)ccc3n2C)cc1

>  <cell viability / %>
109

$$$$

Now examine the next entry.
Exercise: Consider the compound `COc1ncnc(N[S+](=O)([O-])c2ccc(N)cc2)c1OC` . State its measured cell viability.
Key: 109

---

system: SEM cells; assay: cell viability relative to DMSO control; higher = less cytotoxic; details: HPLM + 10% dialyzed FBS; 48 h; 0.569 µM
quantity: cell viability (%)
# number only, unit % dropped from output

Reference set, count: 2
>  <compound>
N#Cc1ccnc(Nc2cc(C3CCN(C4COC4)CC3)cc(N3CCC(F)(F)C3)n2)c1

>  <quantity>
cell viability

>  <reported_value>
109

$$$$
>  <compound>
CCC(=O)N[C@H]1CC[C@H](C(=O)N(C)c2ccc(-c3nc4ccccc4o3)cc2)C1

>  <quantity>
cell viability

>  <reported_value>
101

$$$$

Exercise: Consider the compound `CN[C@@H](C)C(=O)N[C@H]1CN(C(=O)CC(C)C)CC[C@H]2CC[C@@H](C(=O)NC(c3ccccc3)c3ccccc3)N2C1=O` . State its measured cell viability.
Key: 99

---

test system: NOMO1; assay: cell viability relative to DMSO control; higher = less cytotoxic; details: RPMI 5 mM glucose + 10% dialyzed FBS; 48 h; 0.19 µM
quantity: cell viability (%)
# number only, unit % dropped from output

>  <molecule_smiles>
CN1\N=C(N)/C2=C[N]([C@@H]3O[C@H](CO[P](O)(O)=O)[C@@H](O)[C@H]3O)C4=C2C1=NC=N4

>  <unit_tag>
%

>  <reported_value>
82.3

$$$$
>  <molecule_smiles>
CN1CCC[C@@H]1CCO[C@](C)(c1ccccc1)c1ccc(Cl)cc1

>  <unit_tag>
%

>  <reported_value>
108

$$$$
>  <molecule_smiles>
COc1cc2c(Nc3ccc(Br)cc3F)ncnc2cc1OCC1CCN(C)CC1

>  <unit_tag>
%

>  <reported_value>
85.2

$$$$
>  <molecule_smiles>
Cc1[nH]c(/C=C2\C(=O)Nc3ccccc32)c(C)c1CCC(=O)O

>  <unit_tag>
%

>  <reported_value>
106

$$$$

Now examine the next entry.
Exercise: State recorded cell viability with NOMO1, entry `CC(C)C[C@H](NC(=O)CNC(=O)c1cc(Cl)ccc1Cl)B(O)O` , no comment.
Key: 107
